assay: Plasma concentration in db/db mouse at 1 mg/kg, iv after 5 mins; format: ADME, organism-based; parameters: dose 1 mg/kg, route intravenous; settings: read-out: Drug uptake
measurementType: concentration at 5 min (ng/mL)
The response must be a number in ng/mL with no trailing unit.

Inquiry: Can you share its concentration at 5 min? I mean this compound: CN(Cc1ccc(C(=O)O)cc1)c1ccc(OCc2c(-c3c(Cl)cccc3Cl)noc2C2CC2)nc1C(F)(F)F
Reply text: 745

Inquiry: Can you share its concentration at 5 min? I mean this compound: CN(Cc1ccc(C(=O)NCCS(=O)(=O)O)cc1)c1ccc(OCc2c(-c3c(Cl)cccc3Cl)noc2C2CC2)nc1C(F)(F)F
Reply text: 72

Inquiry: Can you share its concentration at 5 min? I mean this compound: CC(C)c1onc(-c2c(Cl)cccc2Cl)c1COc1ccc(N(C)Cc2ccc(C(=O)O)cc2)c(C(F)(F)F)n1
Reply text: 1620

* * *

Entries and their measured CL/F follow.
assay: Clearance in db/db mouse at 5 mg/kg, po; format: ADME, organism-based; set-up: dose 5 mg/kg, route oral; conditions: in vivo
The response must be a number in mL/min/kg with no trailing unit.

substanceSmiles | measurementType | reading
CN(Cc1ccc(C(=O)NCCS(=O)(=O)O)cc1)c1ccc(OCc2c(-c3c(Cl)cccc3Cl)noc2C2CC2)nc1C(F)(F)F | CL/F | 3280

Inquiry: Can you share its CL/F? I mean this molecule: CC(C)c1onc(-c2c(Cl)cccc2Cl)c1COc1ccc(N(C)Cc2ccc(C(=O)O)cc2)c(C(F)(F)F)n1
Reply text: 104

Inquiry: Can you share its CL/F? I mean this molecule: CN(Cc1ccc(C(=O)O)cc1)c1ccc(OCc2c(-c3c(Cl)cccc3Cl)noc2C2CC2)nc1C(F)(F)F
Reply text: 67.9

* * *

Entries and their measured EC50 follow.
target: UniProtKB P10276; experiment: Agonist activity at RARalpha-LBD expressed in HEK293 cells assessed as Gal4-DBD interaction by cellular mammalian one hybrid assay
Sequence (P10276 whole entry, the tested form may be a part): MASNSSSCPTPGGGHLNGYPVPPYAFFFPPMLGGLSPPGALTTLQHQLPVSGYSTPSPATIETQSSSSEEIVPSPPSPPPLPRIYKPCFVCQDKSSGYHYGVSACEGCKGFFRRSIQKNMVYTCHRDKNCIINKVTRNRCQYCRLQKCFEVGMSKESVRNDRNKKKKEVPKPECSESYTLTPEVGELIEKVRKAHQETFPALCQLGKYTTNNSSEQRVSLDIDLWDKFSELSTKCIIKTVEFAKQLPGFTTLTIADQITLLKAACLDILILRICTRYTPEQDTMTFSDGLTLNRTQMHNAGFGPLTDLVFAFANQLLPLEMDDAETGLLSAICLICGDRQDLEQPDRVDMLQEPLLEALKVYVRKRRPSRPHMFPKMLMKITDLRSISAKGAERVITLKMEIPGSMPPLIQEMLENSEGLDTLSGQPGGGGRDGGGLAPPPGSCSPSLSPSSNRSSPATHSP

substanceSmiles | EC50
CN(Cc1cccc(C(=O)O)c1)c1ccc(OCc2c(-c3c(Cl)cccc3Cl)noc2C2CC2)nc1C(F)(F)F | > 10 µM
CC(C)c1onc(-c2c(Cl)cccc2Cl)c1COc1ccc(N(C)Cc2ccc(C(=O)O)cc2)c(C(F)(F)F)n1 | > 10 µM

Now examine the next entry.
Inquiry: Can you share its EC50? I mean this molecule: CN(Cc1ccc(C(=O)O)cc1)c1ccc(OCc2c(-c3c(Cl)cccc3Cl)noc2C2CC2)nc1C(F)(F)F
Reply text: > 10 µM

* * *

Entries and their measured pEC50 follow.
target: Retinoic acid receptor gamma (Homo sapiens); assay: Agonist activity at RARgamma-LBD expressed in HEK293 cells assessed as Gal4-DBD interaction by cellular mammalian one hybrid assay
Sequence (P13631 whole entry, the tested form may be a part): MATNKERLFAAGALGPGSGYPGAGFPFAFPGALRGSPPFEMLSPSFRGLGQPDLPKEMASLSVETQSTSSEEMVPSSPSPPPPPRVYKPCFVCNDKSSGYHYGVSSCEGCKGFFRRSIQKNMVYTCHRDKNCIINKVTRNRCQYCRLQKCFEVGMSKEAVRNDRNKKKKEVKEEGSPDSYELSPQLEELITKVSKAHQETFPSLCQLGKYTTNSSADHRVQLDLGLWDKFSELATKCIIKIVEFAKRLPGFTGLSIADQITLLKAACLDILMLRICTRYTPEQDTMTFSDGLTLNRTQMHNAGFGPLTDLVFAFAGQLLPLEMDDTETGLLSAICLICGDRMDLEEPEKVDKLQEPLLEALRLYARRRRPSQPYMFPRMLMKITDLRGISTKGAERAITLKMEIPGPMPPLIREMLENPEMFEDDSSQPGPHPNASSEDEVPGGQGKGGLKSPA
pEC50: −log10 of the molar value.

Inquiry: Can you share its pEC50? I mean this compound: CN(Cc1ccc(C(=O)O)cc1)c1ccc(OCc2c(-c3c(Cl)cccc3Cl)noc2C2CC2)nc1C(F)(F)F
Reply text: < 5.00

Inquiry: Can you share its pEC50? I mean this compound: CN(Cc1cccc(C(=O)O)c1)c1ccc(OCc2c(-c3c(Cl)cccc3Cl)noc2C2CC2)nc1C(F)(F)F
Reply text: < 5.00

Inquiry: Can you share its pEC50? I mean this compound: CC(C)c1onc(-c2c(Cl)cccc2Cl)c1COc1ccc(N(C)Cc2ccc(C(=O)O)cc2)c(C(F)(F)F)n1
Reply text: < 5.00
